subject of test: HLA-A24 type molecule (product of the HLA-A*2402 gene) (human)
Entries annotated with measured -log Kd

Challenge: What does the data say about its -log Kd? Entry: PLLRDEVTF (modifications not checked) [SEQ ID NO 87]
Response given: 5.09 -log Kd (M)

Challenge: // same read-out, input: LLKRLHQWI (modifications not checked) [SEQ ID NO 104]
Response given: 6.86 -log Kd (M)

Challenge: Same for ILLGPADSF (modifications not checked) [SEQ ID NO 100]
Response given: 5.5 -log Kd (M)

Challenge: Proceed to TVLADFKTW (modifications not checked) [SEQ ID NO 90]
Response given: 6.52 -log Kd (M)
